Test system: NOMO1
TEST_SUMMARY: cell viability relative to DMSO control; higher = less cytotoxic
CONDITION_SET: HPLM + 10% dialyzed FBS; 48 h; 0.19 µM
RECORDED_ENDPOINT: cell viability (%)

- OC1=C(Cl)C=C(N\C2=C(\C(=O)NC2=O)C3=C(C=CC=C3)[N+]([O-])=O)C=C1: 106
- OC(=O)CNC(=O)\C1=C(/O)C2=CC=CC=C2N(CC3=CC=CC=C3)C1=O: 97.7
- CCOc1ccccc1N/N=C1/C(=O)N(c2nc(-c3ccccc3)cs2)N=C1C: 117
- CC[C@H]1OC(=O)[C@H](C)[C@@H](O[C@H]2C[C@@](C)(OC)[C@@H](O)[C@H](C)O2)[C@H](C)[C@@H](O[C@@H]2O[C@H](C)C[C@H](N(C)C)[C@H]2O)[C@](C)(O)C[C@@H](C)/C(=N\OCOCCOC)[C@H](C)[C@@H](O)[C@]1(C)O: 89.6
- COc1ccc(/C=C/C(=O)Nc2ccccc2C(=O)O)cc1OC: 117
- CN1CCC(CNc2ccc3ncc(-c4cccc(OC(F)(F)F)c4)n3n2)CC1: 125
- Cc1cccc(-c2[nH]c(C(C)(C)C)nc2-c2ccc3nccnc3c2)n1: 133
- Cc1nnc(C(C)C)n1[C@@H]1C[C@H]2CC[C@@H](C1)N2CC[C@H](NC(=O)C1CCC(F)(F)CC1)c1ccccc1: 103
- N#CC1(c2cccc(C(=O)Nc3cc(Oc4ccc5nc(NC(=O)C6CC6)sc5n4)ccc3F)c2Cl)CC1: 93.8
- O=C(NOCC1CC1)c1ccc(F)c(F)c1Nc1ccc(I)cc1Cl: 91.7
- O=C(O)c1cccnc1: 123
- CN(C)c1ccc(-c2nc3c(N4CCN(CC(=O)Nc5nccs5)CC4)c(Cl)cnc3[nH]2)cc1: 127
- CC(C)(Sc1cc(C(C)(C)C)c(O)c(C(C)(C)C)c1)Sc1cc(C(C)(C)C)c(O)c(C(C)(C)C)c1: 90.4
- O=C(O)c1cccc(-c2noc(-c3ccccc3F)n2)c1: 121
- CC[C@H](C)C(=O)O[C@H]1C[C@@H](C)\C=C2\C=C/[C@H](C)[C@H](CC[C@@H]3C[C@@H](O)CC(=O)O3)[C@@H]12: 92.8
- CCN(CC)CCCC(C)Nc1ccnc2cc(Cl)ccc12 (configuration not stated): 103
- Clc1ccc(C(c2ccccc2Cl)C(Cl)Cl)cc1 (configuration not stated): 107

----------
Test system: P12-Ichikawa
TEST_SUMMARY: cell viability relative to DMSO control; higher = less cytotoxic
CONDITION_SET: HPLM + 10% dialyzed FBS; 48 h; 5.12 µM
Attribute: cell viability
RECORDED_ENDPOINT: cell viability (%)

* NCCOc1cc(C(=O)Nc2cc(OCCN)c3ccccc3n2)nc(C(=O)Nc2cc(OCCN)c3ccccc3n2)c1 | 7.51
* Cc1cccc(-c2[nH]c(C(C)(C)C)nc2-c2ccc3nccnc3c2)n1 | 112
* COc1cccc(OC)c1-c1cc(C(=O)NC2(C(=O)O)C3CC4CC(C3)CC2C4)nn1-c1ccnc2cc(Cl)ccc12 (stereo not given) | 101
* Clc1ccc(C(c2ccccc2Cl)C(Cl)Cl)cc1 (stereo not given) | 103
* CN(C)C(=O)[C@H](O)[C@H](Cc1ccccc1)NC(=O)c1cc2cc(Cl)ccc2[nH]1 | 119
